- studyTarget: Epidermal growth factor receptor (Homo sapiens, UniProt P00533, L858R/T790M)
- Sequence (P00533 25-1210 T790M/L858R limits assumed): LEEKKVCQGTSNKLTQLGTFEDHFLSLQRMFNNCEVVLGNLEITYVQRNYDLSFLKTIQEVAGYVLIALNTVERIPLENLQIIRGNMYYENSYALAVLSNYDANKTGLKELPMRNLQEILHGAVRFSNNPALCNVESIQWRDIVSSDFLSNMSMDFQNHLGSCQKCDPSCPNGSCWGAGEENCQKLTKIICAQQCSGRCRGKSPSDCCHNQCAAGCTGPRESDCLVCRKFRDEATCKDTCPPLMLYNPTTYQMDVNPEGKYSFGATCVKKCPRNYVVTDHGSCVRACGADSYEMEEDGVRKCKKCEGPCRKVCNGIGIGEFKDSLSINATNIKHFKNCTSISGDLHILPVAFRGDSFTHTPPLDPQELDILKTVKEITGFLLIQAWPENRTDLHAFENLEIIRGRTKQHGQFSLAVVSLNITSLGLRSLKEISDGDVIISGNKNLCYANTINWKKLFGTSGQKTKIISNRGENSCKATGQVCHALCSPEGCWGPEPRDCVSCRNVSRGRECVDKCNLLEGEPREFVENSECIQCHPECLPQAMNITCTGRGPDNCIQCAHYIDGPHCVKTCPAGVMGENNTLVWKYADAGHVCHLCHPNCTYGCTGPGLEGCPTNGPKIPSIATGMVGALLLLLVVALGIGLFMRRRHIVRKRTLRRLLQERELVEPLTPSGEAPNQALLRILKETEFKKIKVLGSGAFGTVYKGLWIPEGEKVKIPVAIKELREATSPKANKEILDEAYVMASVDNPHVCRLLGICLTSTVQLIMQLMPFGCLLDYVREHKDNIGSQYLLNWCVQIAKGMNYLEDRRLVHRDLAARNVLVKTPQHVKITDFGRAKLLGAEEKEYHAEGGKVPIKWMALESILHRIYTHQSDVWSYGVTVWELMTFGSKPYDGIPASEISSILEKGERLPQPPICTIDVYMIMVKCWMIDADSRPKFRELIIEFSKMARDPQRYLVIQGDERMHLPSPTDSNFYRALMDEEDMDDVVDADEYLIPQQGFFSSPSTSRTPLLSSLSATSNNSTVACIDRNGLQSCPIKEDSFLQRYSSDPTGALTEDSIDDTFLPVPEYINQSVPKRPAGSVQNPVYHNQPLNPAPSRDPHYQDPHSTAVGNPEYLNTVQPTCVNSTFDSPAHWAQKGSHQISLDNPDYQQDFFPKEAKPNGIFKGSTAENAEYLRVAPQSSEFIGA
- experiment: biochemical
- Type: cell-based, Sf21
pIC50: −log10 of the molar value.
valueType: pIC50

- compound: "C=CC(=O)Nc1cc2c(Nc3ccc(F)c(Cl)c3)ncnc2cc1OCc1cn(CCc2ccccc2)nn1"
  measured: 7.92
- compound: "C=CC(=O)Nc1cc2c(Nc3ccc(F)c(Cl)c3)ncnc2cc1OCc1cn(Cc2ccc(F)cc2)nn1"
  measured: 8.22
- compound: "C=CC(=O)Nc1cc2c(Nc3ccc(F)c(Cl)c3)ncnc2cc1OCc1cn(Cc2ccc(C)cc2)nn1"
  measured: 7.82
- compound: "C=CC(=O)Nc1cc2c(Nc3ccc(F)c(Cl)c3)ncnc2cc1OCc1cn(Cc2ccccc2)nn1"
  measured: 8.10
